SYSTEM: BRD4 (Homo sapiens, UniProt O60885)
ASSAY NAME: Time resolved fluorescence resonance energy transfer (TR-FRET) binding assay, bromodomain BRD4
CONDITION INFO: one of the FRET assays described; read-out: FRET BRD4 IC50
Consider the following molecules; for each one, report its IC50.

Q. Param readout = IC50; param system = BRD4 (Homo sapiens, UniProt O60885); param query = "[2H]C([2H])([2H])c1nnn(C)c1-c1cnc2c3cnc(C(C)(C)O)c(F)c3n([C@H](c3ccccc3)C3CCOCC3)c2c1" ; response: value
A. < 1 nM

Q. Do the same for [2H]C([2H])([2H])c1nnn(C)c1-c1cnc2c3ccc(-c4c(C([2H])([2H])[2H])nnn4C)nc3n(C(c3ncccc3F)C3CCOCC3)c2c1 (stereo not shown) [Example 247] please
A. < 1 nM

Q. Do the same for "COc1ccc2c3ncc(-c4c(C)nnn4C)cc3n([C@H](c3ccccc3)C3CCOCC3)c2n1" please
A. < 10 nM

Q. Do the same for "Cc1nnn(C)c1-c1cnc2c3ccc(N4CCN(C(=O)C5CC5)CC4)nc3n([C@H](c3ccc(F)cc3)C3CCOCC3)c2c1" please
A. < 10 nM

Q. Do the same for "[2H]C([2H])([2H])c1nnn(C)c1-c1cnc2c3c(N(C)CC)ncc(S(C)(=O)=O)c3n([C@H](c3ccccc3)C3CCOCC3)c2c1" please
A. < 1 nM

Q. Do the same for "COc1nnn(C)c1-c1cnc2c3ccc(Cl)nc3n([C@H](c3ccccc3)C3CCOCC3)c2c1" please
A. < 1500 nM

Q. Do the same for "[2H]C([2H])([2H])c1nnn(C)c1-c1cnc2c3ccc(N4CCNCC4)nc3n([C@H](c3ccccc3)C3CCOCC3)c2c1" please
A. < 10 nM

Q. Do the same for "COc1ncc(S(C)(=O)=O)c2c1c1ncc(-c3c(C)nnn3C)cc1n2[C@H](c1ccccc1F)C1CCOCC1" please
A. < 1 nM

Q. Do the same for [2H]C([2H])([2H])c1nnn(C)c1-c1cnc2c3c(OC)ncc(S(C)(=O)=O)c3n(C(c3ncccc3F)C3CCOCC3)c2c1 (stereo not shown) [Example 65] please
A. < 1500 nM

Q. Do the same for Cc1nnn(C)c1-c1cnc2c3ccc(N4CCS(=O)(=O)C(C)C4)nc3n([C@H](c3ccccc3)C3CCOCC3)c2c1 (stereo partly shown) [Example 213] please
A. < 1 nM

Q. Do the same for "[2H]C([2H])([2H])c1nnn(C)c1-c1cnc2c3cnc(C(C)(C)O)cc3n([C@H](c3ccccc3)C3CCOCC3)c2c1" please
A. < 1 nM

Q. Do the same for "COc1ncc(S(C)(=O)=O)c2c1c1ncc(-c3c(C)noc3C)cc1n2[C@H](c1ccccc1)C1CCOCC1" please
A. < 1 nM

Q. Do the same for Cc1nnn(C)c1-c1cnc2c3ccc(N4CC(C)S(=O)(=O)C(C)C4)nc3n([C@H](c3ccccc3)C3CCOCC3)c2c1 (single isomer, unassigned) [Example 191] please
A. < 1 nM

---

SYSTEM: BRD4 (Homo sapiens)
ASSAY NAME: Time resolved fluorescence resonance energy transfer (TR-FRET) binding assay, bromodomain BRD4
CONDITION INFO: one of the FRET assays described; read-out: FRET BRD4 IC50
pIC50: −log10 of the molar value.
Consider the following compounds; for each one, report its pIC50.

Q. Param readout = pIC50; param system = BRD4 (Homo sapiens); param query = [2H]C([2H])([2H])c1nnn(C)c1-c1cnc2c3c(OC)ncc(S(C)(=O)=O)c3n([C@H](c3ccc(F)cc3)C3CCC(F)(F)CC3)c2c1 [Example 95] ; response: value
A. > 8.00

Q. Do the same for [2H]C([2H])([2H])c1nnn(C)c1-c1cnc2c3cnc(-c4c(C([2H])([2H])[2H])nnn4C)cc3n([C@H](c3ccccc3)C3CCOCC3)c2c1 [Example 168] please
A. > 9.00

Q. Do the same for [2H]C([2H])([2H])c1nnn(C)c1-c1cnc2c3cnc(S(C)(=O)=O)cc3n([C@H](c3ccccc3F)C3CCOCC3)c2c1 [Example 245] please
A. > 8.00

---

SYSTEM: BRD4 (Homo sapiens, UniProt O60885)
ASSAY NAME: Time resolved fluorescence resonance energy transfer (TR-FRET) binding assay, bromodomain BRD4
CONDITION INFO: one of the FRET assays described; read-out: FRET BRD4 IC50
PROPERTY: IC50

Q. Query (compound): [2H]C([2H])([2H])c1nnn(C)c1-c1cnc2c3c(OC)ncc(S(C)(=O)=O)c3n(C(c3ncccc3F)C3CCOCC3)c2c1 (stereo not shown) [Example 64] ; field requested: IC50
A. < 1 nM

Q. Do the same for COc1nccc2c3ncc(-c4c(C)nnn4C)cc3n(C(c3cccc(F)c3)C3CCOCC3)c12 (single isomer, unassigned) [Example 20] please
A. < 10 nM

Q. Do the same for "COc1ccc(CNc2ccc3c4ncc(-c5c(C)nnn5C)cc4n([C@H](c4ccccc4)C4CCOCC4)c3n2)c(OC)c1" please
A. < 10 nM

Q. Do the same for Cc1nnn(C)c1-c1cnc2c3c(=O)[nH]c(Cl)cc3n(C(c3ncccc3F)C3CCOCC3)c2c1 (stereo not shown) please
A. < 10 nM

Q. Do the same for "[2H]C([2H])([2H])c1nnn(C)c1-c1cnc2c3c(NCC(F)(F)F)nccc3n([C@H](c3ccccc3)C3CCOCC3)c2c1" please
A. < 1 nM

Q. Do the same for "Cc1nnn(C)c1-c1cnc2c3ccc(C4=CCN(C)CC4)nc3n([C@H](c3ccccc3F)C3CCOCC3)c2c1" please
A. < 10 nM

Q. Do the same for "[2H]C([2H])([2H])c1nnn(C)c1-c1cnc2c3c(OCC4CC4)nccc3n([C@H](c3ccccc3)C3CCOCC3)c2c1" please
A. < 1 nM

Q. Do the same for [2H]C([2H])([2H])c1nnn(C)c1-c1cnc2c3c(OCC4CCCO4)ncc(S(C)(=O)=O)c3n([C@H](c3ccccc3)C3CCOCC3)c2c1 (stereo partly shown) [Example 109] please
A. < 10 nM

Q. Do the same for Cc1nnn(C)c1-c1cnc2c3cncc(S(C)(=O)=O)c3n(C(c3ccccc3)C3CCC(F)(F)CC3)c2c1 (stereo not shown) [Example 289] please
A. < 1500 nM

Q. Do the same for "[2H]C([2H])([2H])c1nnn(C)c1-c1cnc2c3c(OCC)ncc(S(C)(=O)=O)c3n([C@H](c3ccccc3)C3CCOCC3)c2c1" please
A. < 1 nM

Q. Do the same for "Cc1noc(C)c1-c1cnc2c3c(NS(=O)(=O)C4CC4)ncc(S(C)(=O)=O)c3n([C@H](c3ccccc3)C3CCOCC3)c2c1" please
A. < 10 nM

Q. Do the same for COc1ccc2c3ncc(-c4c(C)nnn4C)cc3n(C(c3cccc(F)c3F)C3CCOCC3)c2n1 (racemic) please
A. < 10 nM

Q. Do the same for "[2H]C([2H])([2H])c1nnn(C)c1-c1cnc2c3c(C(C)(C)O)cncc3n([C@H](c3ccccc3)C3CCOCC3)c2c1" please
A. < 10 nM

---

SYSTEM: UniProt:O60885
ASSAY NAME: Time resolved fluorescence resonance energy transfer (TR-FRET) binding assay, bromodomain BRD4
CONDITION INFO: one of the FRET assays described; read-out: FRET BRD4 IC50
pIC50: −log10 of the molar value.
PROPERTY: pIC50

Q. Query (compound): [2H]C([2H])([2H])c1nnn(C)c1-c1cnc2c3c(OC)ncc(S(C)(=O)=O)c3n(C(c3ccc(F)cc3)C3CCC(F)(F)CC3)c2c1 (stereo in doubt) ; field requested: pIC50
A. > 5.82

Q. Do the same for "[2H]C([2H])([2H])N1CCN(c2ccc3c4ncc(-c5c(C)nnn5C)cc4n([C@H](c4ccccc4F)C4CCOCC4)c3n2)CC1" please
A. > 8.00

Q. Do the same for "[2H]C([2H])([2H])c1nnn(C)c1-c1cnc2c3c(NCC(F)(F)F)ncc(S(C)(=O)=O)c3n([C@H](c3ccccc3)C3CCOCC3)c2c1" please
A. > 9.00

---

Consider the following compounds; for each one, report its IC50.
SYSTEM: BRD4 (Homo sapiens)
ASSAY NAME: Time resolved fluorescence resonance energy transfer (TR-FRET) binding assay, bromodomain BRD4
CONDITION INFO: one of the FRET assays described; read-out: FRET BRD4 IC50

Q. Param readout = IC50; param system = BRD4 (Homo sapiens); param query = Cc1nnn(C)c1-c1cnc2c3ccc(-c4ccnn4C)nc3n([C@H](c3ccccc3F)C3CCOCC3)c2c1 [Example 229] ; response: value
A. < 10 nM

Q. Do the same for [2H]C([2H])([2H])c1nnn(C)c1-c1cnc2c3c(Cl)ncc(F)c3n([C@H](c3ccccc3)C3CCOCC3)c2c1 [Example 280] please
A. < 10 nM

Q. Do the same for [2H]C([2H])([2H])Oc1ncc(S(C)(=O)=O)c2c1c1ncc(-c3c(C)noc3C([2H])([2H])[2H])cc1n2[C@H](c1ccc(F)cc1)C1CCOCC1 [Example 55] please
A. < 1 nM

Q. Do the same for [2H]C([2H])([2H])c1nnn(C)c1-c1cnc2c3c(OC)ncc(S(C)(=O)=O)c3n([C@@H](c3ccccc3)C3CCC(F)(F)CC3)c2c1 [Example 82] please
A. < 1500 nM

Q. Do the same for COc1ncc(S(=O)(=O)CC2(O)COC2)c2c1c1ncc(-c3c(C)nnn3C)cc1n2[C@H](c1ccccc1)C1CCOCC1 [Example 106] please
A. < 10 nM

Q. Do the same for [2H]C([2H])([2H])c1nnn(C)c1-c1cnc2c3c(N[C@H](C)C4CC4)ncc(S(C)(=O)=O)c3n([C@H](c3ccccc3)C3CCOCC3)c2c1 [Example 114] please
A. < 10 nM
